Values from the supplement of paper PMC7877785

assay-text: self-splicing fitness, log relative to wild type (ln ratio); higher = more splicing; Tetrahymena group I intron in knt gene, E. coli kanamycin selection, DiMSum; sequences stand for … in CUCUCU…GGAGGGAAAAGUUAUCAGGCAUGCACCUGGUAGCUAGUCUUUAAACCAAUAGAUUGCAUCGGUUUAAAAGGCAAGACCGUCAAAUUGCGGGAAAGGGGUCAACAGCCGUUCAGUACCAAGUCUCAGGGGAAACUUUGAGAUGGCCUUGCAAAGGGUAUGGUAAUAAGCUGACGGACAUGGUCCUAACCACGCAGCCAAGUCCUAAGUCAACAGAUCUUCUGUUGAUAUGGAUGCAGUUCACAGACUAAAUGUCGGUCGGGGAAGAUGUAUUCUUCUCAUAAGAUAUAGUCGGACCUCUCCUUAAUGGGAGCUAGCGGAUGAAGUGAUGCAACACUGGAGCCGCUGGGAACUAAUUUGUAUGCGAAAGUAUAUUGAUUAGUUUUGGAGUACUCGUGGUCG;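 further: selection with 25 µg/mL kanamycin versus none on LB agar overnight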
protocol-conditions: 30 °C
recorded-metric: self-splicing fitness (ln)
The response must contain the number and no unit.

Observe how each entry below is paired with its result.
>  <biosequence>
CCUCAGCAAUAUUACGGGUC

>  <recorded-metric>
self-splicing fitness (ln)

>  <reported-value>
-2.5

$$$$
>  <biosequence>
GAUAAGCAAUAUUACGUUUA

>  <recorded-metric>
self-splicing fitness (ln)

>  <reported-value>
-1.59

$$$$
>  <biosequence>
AUCUAGCAAUAUUACGUUCU

>  <recorded-metric>
self-splicing fitness (ln)

>  <reported-value>
-1.52

$$$$
>  <biosequence>
UAGCAGCAAUAUUACGAUUG

>  <recorded-metric>
self-splicing fitness (ln)

>  <reported-value>
-0.536

$$$$

I have this sequence here, CUGCAGCAAUAUUACGCAAA , and I need its recorded self-splicing fitness (ln).
-2.18

GGGUAGCAAUAUUACGCGGU , same question.
-3.15

Query AUGCAGCAAUAUUACGAGUA next
-2.98

Now give it for CAAGAGCAAUAUUACGAUAA too.
-3.21
